target: system Xc^− (Homo sapiens, UniProt Q9UPY5); assay: [^14C]L-Cystine uptake assay; type: cell-based; design: endogenous in cells; host or cells: H4 cells; conditions: H4 cells, sodium-free HEPES buffer, 0.5 μM L-[14C]Cystine and 4.5 μM L-Cystine, 1 hour at 37° C.; read-out: pIC50 [^14C] L-Cystine uptake assay (converted)
Sequence (Q9UPY5 whole entry): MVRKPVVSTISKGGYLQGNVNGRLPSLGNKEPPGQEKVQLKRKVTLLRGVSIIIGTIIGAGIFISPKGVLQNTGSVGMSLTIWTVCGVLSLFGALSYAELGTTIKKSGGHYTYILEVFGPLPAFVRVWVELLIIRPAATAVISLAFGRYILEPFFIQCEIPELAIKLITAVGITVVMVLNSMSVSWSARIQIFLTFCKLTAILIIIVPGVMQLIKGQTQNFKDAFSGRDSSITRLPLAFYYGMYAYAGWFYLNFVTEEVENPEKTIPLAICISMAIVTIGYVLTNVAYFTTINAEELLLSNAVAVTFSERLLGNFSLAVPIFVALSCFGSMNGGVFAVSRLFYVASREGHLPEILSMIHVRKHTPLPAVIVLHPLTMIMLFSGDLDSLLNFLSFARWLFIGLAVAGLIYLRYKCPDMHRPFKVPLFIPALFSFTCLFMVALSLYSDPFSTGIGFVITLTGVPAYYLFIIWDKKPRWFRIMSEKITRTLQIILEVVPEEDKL
Sequence (P08195 102-630 partner): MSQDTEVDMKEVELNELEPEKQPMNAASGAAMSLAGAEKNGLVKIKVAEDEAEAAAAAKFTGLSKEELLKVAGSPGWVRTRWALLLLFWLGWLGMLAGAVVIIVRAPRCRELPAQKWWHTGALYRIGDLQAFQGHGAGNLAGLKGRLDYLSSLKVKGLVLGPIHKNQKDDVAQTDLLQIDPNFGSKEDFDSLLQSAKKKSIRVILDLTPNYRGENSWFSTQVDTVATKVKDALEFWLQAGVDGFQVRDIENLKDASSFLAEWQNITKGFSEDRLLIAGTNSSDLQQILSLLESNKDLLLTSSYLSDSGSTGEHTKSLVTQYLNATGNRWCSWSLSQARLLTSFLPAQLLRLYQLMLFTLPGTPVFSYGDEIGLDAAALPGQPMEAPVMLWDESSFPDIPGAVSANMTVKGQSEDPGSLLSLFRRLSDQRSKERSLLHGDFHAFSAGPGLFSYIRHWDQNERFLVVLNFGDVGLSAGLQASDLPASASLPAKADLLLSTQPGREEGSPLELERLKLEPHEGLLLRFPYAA
Each item that follows carries a reported IC50.

molecule="COc1nc(OC(F)F)cc2c1-c1cccnc1C(C)C(=O)N2CC(=O)Nc1ccc(C(F)F)cc1 (single isomer, unassigned) [#330]" reported="< 15.8 nM"
molecule="Cc1cc2c(c(F)n1)-c1cccnc1C(C)C(=O)N2CC(=O)Nc1ccc(OC(F)F)c(F)c1 (stereo not shown)" reported="15.8 to 39.8 nM"
molecule="Cc1cc2c(c(=O)[nH]1)-c1ccccc1C(C)C(=O)N2CC(=O)Nc1ccc(C(F)(F)F)cc1 (stereo not shown)" reported="39.8 to 100 nM"

Continue with the molecule presented below.
Prompt line: Test system system Xc^− (Homo sapiens, UniProt Q9UPY5); read-out IC50; what value for CC1C(=O)N(CC(=O)Nc2ccc(Cl)c(F)c2)c2cc(N3CC(F)(F)C3)ncc2-c2cccnc21 (single isomer, unassigned) ?
Response line: 15.8 to 39.8 nM

====

Listing of entries alongside the reported IC50.
target: system Xc^− (Homo sapiens, UniProt Q9UPY5); experiment: Cystine-induced glutamate release assay; format: cell-based; set-up: endogenous in cells; host or cells: H4 cells; details: H4 cells, sodium-free HEPES buffer, 50 μM L-Cystine, 2 hours, Amplex Red glutamate readout; read-out: pIC50 Cystine-induced glutamate release assay (converted)

Answered cases to consult:
compound=O=C(CN1C(=O)Cc2ccccc2-c2cnc(CO)cc21)Nc1ccc(C(F)(F)F)cc1 endpoint_name=IC50 reported="100 to 501 nM"
compound="Cc1cc2c(c(F)n1)-c1ccccc1C(O)C(=O)N2CC(=O)Nc1ccc(C(F)(F)F)cc1 (stereo not shown)" endpoint_name=IC50 reported="15.8 to 39.8 nM"
compound="CC1C(=O)N(CC(=O)Nc2ccc(C(F)F)cc2)c2cc(N3CC4(CC4)C3)nc(F)c2-c2cccnc21 (single isomer, unassigned)" endpoint_name=IC50 reported="< 15.8 nM"
compound="C[C@H]1C(=O)N(CC(=O)Nc2ccc(C(F)F)cc2)c2cc(N3CC[C@H](O)C3)nc(F)c2-c2cccnc21 (single isomer, unassigned)" endpoint_name=IC50 reported="< 15.8 nM"
compound="Cc1cc2c(c(C#N)n1)-c1cccnc1C(C)C(=O)N2CC(=O)Nc1ccc(Cl)c(F)c1 (single isomer, unassigned)" endpoint_name=IC50 reported="< 15.8 nM"
compound=CCc1nc(C)cc2c1-c1ccccc1CC(=O)N2CC(=O)Nc1ccc(C(F)(F)F)cc1 endpoint_name=IC50 reported="39.8 to 100 nM"

Attention now shifts to the item below.
Prompt line: IC50 of `CC(=O)OCc1cc2c(cn1)-c1ccccc1CC(=O)N2CC(=O)Nc1ccc(C(F)(F)F)cc1` on system Xc^− (Homo sapiens, UniProt Q9UPY5)?
Response line: 100 to 501 nM

====

Below: a set of entries, each annotated with reported IC50.
Biological target: UniProtKB Q9UPY5
Assay: Cystine-induced glutamate release assay
Assay type: cell-based
Design: endogenous in cells; host or cells: H4 cells
Settings: H4 cells, sodium-free HEPES buffer, 50 μM L-Cystine, 2 hours, Amplex Red glutamate readout; read-out: pIC50 Cystine-induced glutamate release assay (converted)
Method: The effect of compounds of Formula (I) on the system Xc^− functionality was examined in two independent cell assays: (i) measurement of cystine-induced glutamate release; and (ii) measurement of [^14C]L-Cystine uptake. […] In this assay, the medium is devoid of sodium to prevent the transport of glutamate by sodium-dependent excitatory amino acid transporters (EAATs). […] Fluorescence intensity was measured by EnVision microplate reader (PerkinElmer).

Some solved entries appear below for comparison.
compound="CC1C(=O)N(CC(=O)Nc2ccc(Cl)c(F)c2)c2cc(Cl)cc(F)c2-c2nccnc21 (single isomer, unassigned)" system_name="UniProtKB Q9UPY5" reported="39.8 to 100 nM"
compound="Cc1cc2c(c(F)n1)-c1cncc(F)c1C(C)C(=O)N2CC(=O)Nc1ccc(C(F)(F)F)cc1 (stereo not shown)" system_name="UniProtKB Q9UPY5" reported="39.8 to 100 nM"
compound="CC1C(=O)N(CC(=O)Nc2ccc(Cl)c(F)c2)c2cc(Cl)cc(F)c2-c2nnccc21 (single isomer, unassigned)" system_name="UniProtKB Q9UPY5" reported="39.8 to 100 nM"
compound=Cc1cc2c(cc1C)N(CC(=O)Nc1ccc(Cl)c(F)c1)C(=O)Cc1cccnc1-2 system_name="UniProtKB Q9UPY5" reported="100 to 501 nM"
compound=Cc1cc2c(c(F)n1)-c1cccnc1[C@@H](C)C(=O)N2CC(=O)Nc1ccc2c(cnn2C)c1 system_name="UniProtKB Q9UPY5" reported="15.8 to 39.8 nM"

Prompt line: // query IC50 value for entry `Cc1cc2c(n(C)c1=O)-c1ccccc1N(C)C(=O)N2CC(=O)Nc1ccc(Cl)c(F)c1`
Response line: 15.8 to 39.8 nM

Prompt line: Which IC50 is reported for this compound? `Cc1cc2c(c(Cl)n1)-c1cncc(F)c1CC(=O)N2CC(=O)Nc1ccc(C(F)(F)F)cc1`
Response line: 100 to 501 nM

Prompt line: Need IC50 of Cc1cc2c(cn1)-c1ccc(F)cc1C(C)C(=O)N2CC(=O)Nc1ccc(C(F)F)cc1 (single isomer, unassigned) , thanks.
Response line: < 15.8 nM

Prompt line: Please report the recorded IC50 for CC1C(=O)N(CC(=O)Nc2ccc(Cl)c(F)c2)c2cc(C(F)(F)F)nc(O)c2-c2ccccc21 (single isomer, unassigned) .
Response line: 39.8 to 100 nM

Prompt line: For `Cc1ccc(NC(=O)CN2C(=O)Cc3cccnc3-c3cnc(Cl)cc32)cc1Cl` , what is its reported IC50?
Response line: 100 to 501 nM

Prompt line: Would you mind telling me what IC50 value was observed for `COc1nc(C)cc2c1-c1cccnc1CC(=O)N2CC(=O)Nc1ccc(C(F)F)cc1` ?
Response line: < 15.8 nM

Prompt line: Need IC50 of CC1C(=O)N(CC(=O)Nc2ccc(C(F)(F)F)cc2)c2ccnc(F)c2-c2cccnc21 (single isomer, unassigned) , thanks.
Response line: 39.8 to 100 nM

Prompt line: Given the entry Cc1cc2c(c(F)n1)-c1cccnc1[C@@H](C)C(=O)N2CC(=O)Nc1ccc2cnc(F)cc2c1 (single isomer, unassigned) , report its measured IC50.
Response line: 15.8 to 39.8 nM

====

biological target: system Xc^− (Homo sapiens); test: [^14C]L-Cystine uptake assay; format: cell-based; set-up: endogenous in cells; host or cells: H4 cells; details: H4 cells, sodium-free HEPES buffer, 0.5 μM L-[14C]Cystine and 4.5 μM L-Cystine, 1 hour at 37° C.; read-out: pIC50 [^14C] L-Cystine uptake assay (converted)
endpoint_name: IC50

Reference set (3 entries):
molecule="Cc1cc2c(c(F)n1)-c1ccc(Cl)cc1CC(=O)N2CC(=O)Nc1ccc(C(F)(F)F)cc1 [#85]" reported="100 to 501 nM"
molecule="CC1C(=O)N(CC(=O)Nc2ccc(C(F)F)cc2)c2cc(N3CC4(COC4)C3)nc(F)c2-c2cccnc21 (single isomer, unassigned) [#284]" reported="< 15.8 nM"
molecule="Cc1cc2c(c(=O)n1C)-c1ccc(F)cc1C(C)C(=O)N2CC(=O)Nc1ccc(Cl)c(F)c1 (single isomer, unassigned) [#174]" reported="< 15.8 nM"

Now for a further molecule.
Prompt line: Checklist item: IC50 tested on system Xc^− (Homo sapiens), entry COc1ccc2c(c1)-c1c(cc(C)nc1Cl)N(CC(=O)Nc1ccc(C(F)(F)F)cc1)C(=O)C2C (stereo not shown) [#164] , value?
Response line: 39.8 to 100 nM

====

molecular target: system Xc^− (Homo sapiens); experiment: Cystine-induced glutamate release assay; type: cell-based; design: endogenous in cells; host or cells: H4 cells; settings: H4 cells, sodium-free HEPES buffer, 50 μM L-Cystine, 2 hours, Amplex Red glutamate readout; read-out: pIC50 Cystine-induced glutamate release assay (converted)
endpoint_name: IC50

Prompt line: Record COc1cnc2c(c1)-c1cnc(C)cc1N(CC(=O)Nc1ccc(Cl)c(F)c1)C(=O)C2C (single isomer, unassigned) : what is its IC50 with system Xc^− (Homo sapiens)?
Response line: < 15.8 nM

Prompt line: For the record `Cc1cc2c(c(F)n1)-c1cccc(CO)c1CC(=O)N2CC(=O)Nc1ccc(C(F)(F)F)cc1` , what value of IC50 is listed for system Xc^− (Homo sapiens)?
Response line: 100 to 501 nM

====

target: system Xc^− (Homo sapiens); assay: [^14C]L-Cystine uptake assay; format: cell-based; set-up: endogenous in cells; host or cells: H4 cells; conditions: H4 cells, sodium-free HEPES buffer, 0.5 μM L-[14C]Cystine and 4.5 μM L-Cystine, 1 hour at 37° C.; read-out: pIC50 [^14C] L-Cystine uptake assay (converted)
endpoint_name: IC50

Would you please look over these solved cases?
molecule=Cc1cc2c(c(F)n1)-c1ccccc1CC(=O)N2CC(=O)Nc1ccc(C(F)(F)F)cc1 system_name="system Xc^− (Homo sapiens)" reported="0.0158 to 0.0398 µM"
molecule="Cc1cc2c(c(=O)n1C)-c1ccccc1C(C)C(=O)N2CC(=O)Nc1ccc(Cl)c(F)c1 (single isomer, unassigned)" system_name="system Xc^− (Homo sapiens)" reported="< 0.0158 µM"
molecule=Cc1cc2c(c(F)n1)-c1ccccc1CC(=O)N2CC(=O)Nc1ccc(C(F)F)cc1 system_name="system Xc^− (Homo sapiens)" reported="< 0.0158 µM"
molecule=Cc1cc2c(c(C)n1)-c1cc(F)ccc1CC(=O)N2CC(=O)Nc1ccc(C(F)(F)F)cc1 system_name="system Xc^− (Homo sapiens)" reported="< 0.0158 µM"

Prompt line: Need IC50 of `Cc1cc2c(c(F)n1)-c1ncccc1CC(=O)N2CC(=O)Nc1ccc(C(F)(F)F)cc1` , thanks.
Response line: 0.1 to 0.501 µM

Prompt line: Could you share which IC50 value was measured for `Cc1cc2c(n(C)c1=O)-c1ccccc1CC(=O)N2CC(=O)Nc1ccc(Cl)c(F)c1` ?
Response line: 0.0158 to 0.0398 µM

Prompt line: Given the entry Cc1cc2c(c(F)n1)-c1ccccc1C(C)C(=O)N2CC(=O)Nc1ccc(Cl)c(F)c1 (centres unmarked) , report its measured IC50.
Response line: < 0.0158 µM

Prompt line: Look at this molecule and give its reported IC50. `Cc1cc2c(cc1C)-n1nccc1CC(=O)N2CC(=O)Nc1ccc(C(F)(F)F)cc1`
Response line: 0.0398 to 0.1 µM
